Source of measurements: patent US9795602B2

Quick reference for log10 CC50 at 5 days among some compounds
TEST_SUMMARY: Cytotoxicity (CC50) in MT4 cells, mock-infected
Type: cell-based
RUN_PARAMETERS: human, mock-infected
Description: Infected and uninfected cells are diluted in cell growth medium and 35 μL of 2000 (for MT4) cells is added to each well of the assay plates. Assay plates were then incubated in a 37° C. incubator. […] Cell lysis was carried out by incubating at room temperature for 2-3 minutes, and then chemiluminescence was read using the Envision reader (PerkinElmer).
ENDPOINT: log10 CC50 at 5 days (log10 of the value in µM)

| COMPOUND | EXPERIMENTAL_RESULT |
| --- | --- |
| CCCN1C(=O)c2c(O)c(=O)c(C(=O)NCc3c(F)cc(F)cc3F)cn2[C@@H]2CCO[C@@H]21 (racemic) | 1.57 |
| CN1C(=O)c2c(O)c(=O)c(C(=O)NCc3c(F)cc(F)cc3F)cn2[C@H]2[C@@H]3C[C@@H]3C[C@H]21 | 1.12 |
| CN1C(=O)c2c(O)c(=O)c(C(=O)NCc3c(F)cc(F)cc3F)cn2[C@H]2C[C@@H]3C[C@@H]3[C@H]21 | 0.83 |
| CCN1C(=O)c2c(O)c(=O)c(C(=O)NCc3ccc(F)c(Cl)c3F)cn2[C@H]2CCOC[C@H]21 | 1.11 |
| CCN1C(=O)c2c(O)c(=O)c(C(=O)NCc3ccc(F)c(Cl)c3F)cn2[C@H]2COCC[C@H]21 | 0.81 |
| CN1C(=O)c2c(O)c(=O)c(C(=O)NCc3ccc(F)c(Cl)c3F)cn2[C@H]2C[C@@H]3C[C@@H]3[C@H]21 | 0.45 |
